# assay remarks: Acute toxicity test
# Format: in vivo
# condition details: mouse, in vivo, ip; intraperitoneal, ICR male mice, 14 days; read-out: LD50/14 (50% death rate over 14 days)
Provide the reported LD50 at 336 h of each item.

[[record]]
compound = "CC(=O)OCC(COC(C)=O)OCn1cnc([N+](=O)[O-])n1 [(2)]"
data_value = "790 mg/kg"


Could you now look at the following compound, please?
## Input Can you share its LD50 at 336 h? I mean this compound: CC(=O)OCC(COC(C)=O)OCn1ccnc1[N+](=O)[O-] [(1)]
## Output > 860 mg/kg

Data credit: patent US4945102A
